targetOfAssay: T1, Human ST2 (human, UniProt Q01638 19-328, limits assumed)
T1 construct: also called human ST2 protein; Interleukin 1 receptor-like 1
T1 sequence (looked up): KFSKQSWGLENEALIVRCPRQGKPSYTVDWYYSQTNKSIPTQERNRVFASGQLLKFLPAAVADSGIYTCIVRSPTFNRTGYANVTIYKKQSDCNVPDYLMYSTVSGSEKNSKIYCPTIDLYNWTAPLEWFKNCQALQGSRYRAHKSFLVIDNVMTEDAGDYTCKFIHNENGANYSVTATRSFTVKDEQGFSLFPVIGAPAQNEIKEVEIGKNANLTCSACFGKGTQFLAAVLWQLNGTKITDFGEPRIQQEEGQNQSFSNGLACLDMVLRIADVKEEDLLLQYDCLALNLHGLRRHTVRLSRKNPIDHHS
methodSummary: SPR (Carterra), antibody immobilized, ST2 analyte
Field: koff. Provide a value for each of the binders that follow.
Answers are plain numbers, in s⁻¹.

Human ST2 IgG1 Antibody 71 (antibody, V domains shown, IgG1; also called ST2 Antibody 71) VH: QVQLVQSGAEVKKPGASVKVSCKASGGTFSNYGVSWVRQAPGQGLEWMGGINPSRGTTTYAQKFQGRVTMTRDTSTSTVYMELSSLRSEDTAVYYCAKGDIVVVPAAMFSLGPGYYYYMDVWGKGTTVTVSS VL: DIQMTQSPSSLSASVGDRVTITCRASQSISSYLNWYQQKPGKAPKLLIYAASSLQSGVPSRFSGSGSGTDFTLTISSLQPEDFATYYCQQANSFPITFGQGTKLEIKR
0.12
Human ST2 IgG1 Antibody 87 (antibody, V domains shown, IgG1; also called ST2 Antibody 87) VH: QVQLVQSGAEVKKPGASVKVSCKASGYTFAGQYMHWVRQAPGQGLEWMGNINPSGGSTSYAQRFQGRVTMTRDTSTSTVYMELSSLRSEDTAVYYCARGDYSETYYYYMDVWGKGTTVTVSS VL: DIQMTQSPSSLSASVGDRVTITCRASQHINSNLNWYQQKPGKAPKLLIYGASSLQSGVPSRFSGSGSGTDFTLTISSLQPEDFATYYCQQSYTTPFTFGPGTKVDIKR
0.018
Human ST2 IgG1 Antibody 31 (antibody, V domains shown, IgG1; also called ST2 Antibody 31) VH: QVQLVQSGAEVKKPGSSVKVSCKASGGTFSTYAFSWVRQAPGQGLEYMGGIIPMFGTANYAQKFQGRVTITADESTSTAYMELSSLRSEDTAVYYCAGERGYGSLDYWGQGTLVTVSS VL: DIQMTQSPSSLSASVGDRVTITCRASQGIGSWLAWYQQKPGKAPKLLIYAASSLQSGVPSRFSGSGSGTDFTLTISSLQPEDFATYYCQQSYTFPYTFGQGTKLEIKR
0.12
Human ST2 IgG1 Antibody 81 (antibody, V domains shown, IgG1; also called ST2 Antibody 81) VH: EVQLLESGGGLVKPGGSLRLSCAASGFTFSSYWMSWVRQAPGKGLEWVSSISSSGNYMYYAVSVKGRFTISRDDSKNTLYLQMNSLKTEDTAVYYCATETYSYSSMDVWGQGTTVTVSS VL: DIQMTQSPSSLSASVGDRVTITCRASQSISSYLNWYQQKPGKAPKLLIYDASNLETGVPSRFSGSGSGTDFTLTISSLQPEDFATYYCQQSYGTPLTFGGGTKVDIKR
0.026

# next binder below
The measured koff associated with Human ST2 IgG1 Antibody 93 (antibody, V domains shown, IgG1; also called ST2 Antibody 93) VH: QVQLVQSGAEVKKPGSSVKVSCKASGGTFSTYAISWVRQAPGQGLEWMGGIIPSFNAPSYAQKFQGRVTITADKSTSTAYMELSSLRSEDTAVYYCARVVPAAIVGWYFDLWGRGTLVTVSS VL: DIVMTQSPLSLPVTPGEPASISCRSSQSLLHSNGYNYLDWYLQKPGQSPQLLIYAASTLQTGVPDRFSGSGSGTDFTLKISRVEAEDVGVYYCMQALQTPPTFGQGTKVEIKR reads 0.11
